target: TRIM25 SPRY (human, UniProt Q14258 410-630); assay: EMSA
Sequence (Q14258 410-630): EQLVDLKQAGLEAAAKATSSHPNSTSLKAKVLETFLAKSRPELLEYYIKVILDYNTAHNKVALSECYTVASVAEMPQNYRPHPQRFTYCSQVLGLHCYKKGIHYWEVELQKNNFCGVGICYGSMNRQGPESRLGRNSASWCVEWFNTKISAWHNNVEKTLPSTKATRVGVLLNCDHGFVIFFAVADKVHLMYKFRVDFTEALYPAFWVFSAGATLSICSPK
Property Measured: Kd
The reply should consist of the numeric value with the unit placed after it.

Req: Data request, read-out Kd, for 28-bp dsRNA, fluorescent (dsRNA) RNA 1: AUGGCUAGCUGGAGCCACCCGCAGUUCG RNA 2: CGAACUGCGGGUGGCUCCAGCUAGCCAU
Resp: 3.47 µM
